Molecular target: SMARCA2 (Homo sapiens)
Sequence (P51531 whole entry): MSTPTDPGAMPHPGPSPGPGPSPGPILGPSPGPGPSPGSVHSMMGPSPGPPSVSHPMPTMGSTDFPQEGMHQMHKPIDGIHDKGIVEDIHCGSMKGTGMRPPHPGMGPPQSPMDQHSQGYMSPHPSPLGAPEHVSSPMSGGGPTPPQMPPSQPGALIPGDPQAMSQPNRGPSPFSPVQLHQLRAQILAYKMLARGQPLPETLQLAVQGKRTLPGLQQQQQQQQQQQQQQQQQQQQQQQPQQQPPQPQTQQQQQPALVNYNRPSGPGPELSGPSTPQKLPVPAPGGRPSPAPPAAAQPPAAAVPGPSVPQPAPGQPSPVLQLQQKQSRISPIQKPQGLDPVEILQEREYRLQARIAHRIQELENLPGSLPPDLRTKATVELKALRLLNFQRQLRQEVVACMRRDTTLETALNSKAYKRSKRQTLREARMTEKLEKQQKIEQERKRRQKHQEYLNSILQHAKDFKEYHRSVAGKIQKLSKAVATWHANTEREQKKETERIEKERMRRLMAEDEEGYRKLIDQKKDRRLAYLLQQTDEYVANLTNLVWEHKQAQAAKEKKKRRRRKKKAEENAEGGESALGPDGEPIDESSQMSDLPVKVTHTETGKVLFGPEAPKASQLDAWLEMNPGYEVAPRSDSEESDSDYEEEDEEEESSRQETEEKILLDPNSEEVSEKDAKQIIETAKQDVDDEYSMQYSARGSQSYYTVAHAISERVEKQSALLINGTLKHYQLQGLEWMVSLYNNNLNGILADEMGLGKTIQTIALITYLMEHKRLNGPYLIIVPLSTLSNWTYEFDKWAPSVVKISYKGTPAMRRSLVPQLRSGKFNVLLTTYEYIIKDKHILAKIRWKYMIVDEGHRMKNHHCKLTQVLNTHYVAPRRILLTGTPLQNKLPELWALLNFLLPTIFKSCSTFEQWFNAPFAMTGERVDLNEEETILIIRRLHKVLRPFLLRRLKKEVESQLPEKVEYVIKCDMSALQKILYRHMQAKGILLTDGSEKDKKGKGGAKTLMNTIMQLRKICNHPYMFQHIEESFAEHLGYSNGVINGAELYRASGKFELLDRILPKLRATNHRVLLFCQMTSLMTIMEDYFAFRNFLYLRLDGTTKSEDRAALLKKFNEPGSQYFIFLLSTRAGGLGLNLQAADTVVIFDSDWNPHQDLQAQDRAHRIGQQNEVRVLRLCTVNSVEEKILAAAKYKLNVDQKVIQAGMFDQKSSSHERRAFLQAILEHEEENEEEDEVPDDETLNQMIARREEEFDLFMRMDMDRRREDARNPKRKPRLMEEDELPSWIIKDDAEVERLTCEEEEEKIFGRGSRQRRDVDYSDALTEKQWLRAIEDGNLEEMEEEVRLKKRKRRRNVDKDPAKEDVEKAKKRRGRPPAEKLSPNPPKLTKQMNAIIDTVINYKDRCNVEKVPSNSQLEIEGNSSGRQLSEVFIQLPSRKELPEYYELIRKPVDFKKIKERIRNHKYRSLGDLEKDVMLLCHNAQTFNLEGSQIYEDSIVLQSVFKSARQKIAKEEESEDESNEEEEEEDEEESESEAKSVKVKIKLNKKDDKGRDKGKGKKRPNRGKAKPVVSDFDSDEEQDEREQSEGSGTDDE
Assay: MSD SMARCA2 degradation in A549 cell line
Type: cell-based
Conditions: A549 cells, 24 h, read-out: SMARCA2 MSD A549 degradation 24 h: Average external-Abs DC50
Method: Example 10. MSD SMARCA2 Degradation in A549 Cell Line Cells were seeded into 96-well plates (A549 cells: 2×10^4 cells/well/100 ul media) and incubated overnight. […] The MSD plate was washed three times with 150 uL/well of TBST and 150 ul/well of 2× MSD reading buffer diluted from 4× (MSD, R92TC-2) with water was added. Lastly, the MSD instrument was read. […]
EXPERIMENTAL_READOUT: DC50

Examples with their reported DC50 follow.
MOLECULE	DC50
Cc1ncsc1-c1ccc(CNC(=O)[C@@H]2C[C@@H](O)CN2C(=O)[C@@H](NC(=O)N2CC3(CC(N4CCN(c5cnc(N6CCc7[nH]c8nnc(-c9ccccc9O)cc8c7[C@H]6C)nc5)CC4)C3)C2)C(C)(C)C)cc1 [I-82]	< 10 nM
C#Cc1ccc(CNC(=O)[C@@H]2C[C@@H](O)CN2C(=O)[C@@H](NC(=O)[C@H]2CC3(CC[C@H](N4CCN(c5cnc(N6CCc7[nH]c8nnc(-c9ccccc9O)cc8c7[C@H]6C)nc5)CC4)CC3)C2)C(C)(C)C)cc1 (single isomer, unassigned) [I-285]	10 to 50 nM
Cc1ncsc1-c1ccc(CNC(=O)[C@@H]2C[C@@H](O)CN2C(=O)[C@@H](NC(=O)[C@H]2CCC3(CC2)C[C@H](N2CCN(c4cnc(N5CCc6[nH]c7nnc(-c8ccccc8O)cc7c6[C@H]5C)nc4)CC2)C3)C(C)(C)C)cc1 (single isomer, unassigned) [I-118]	> 100 nM
C#Cc1ccc(CNC(=O)[C@@H]2C[C@@H](O)CN2C(=O)[C@@H](NC(=O)c2ccc(N3CCC(N4CCC(N5CCN6c7cc(-c8ccccc8O)nnc7NC[C@H]6C5)CC4)CC3)cn2)C(C)(C)C)cc1 [I-292]	< 10 nM
C#Cc1ccc(CNC(=O)[C@@H]2C[C@@H](O)CN2C(=O)[C@@H](NC(=O)[C@H]2CC3(C2)C[C@H](N2CCN(C(=O)CN4CCN5c6cc(-c7ccccc7O)nnc6NC[C@H]5C4)CC2)C3)C(C)(C)C)cc1 (single isomer, unassigned) [I-239]	> 100 nM

Query: Record request: DC50 value, item C#Cc1ccc(CNC(=O)[C@@H]2C[C@@H](O)CN2C(=O)[C@@H](NC(=O)N2CC3(CC(N4CCC(c5cnc(N6CCc7[nH]c8nnc(-c9ccccc9O)cc8c7[C@H]6C)nc5)CC4)C3)C2)C(C)(C)C)c(F)c1 [I-120]
Reply: 10 to 50 nM

Query: Entry Cc1ncsc1-c1ccc(CNC(=O)[C@@H]2C[C@@H](O)CN2C(=O)[C@@H](NC(=O)[C@H]2CC3(C2)C[C@H](N2CCC(N4CCC(c5ccc6[nH]c7nnc(-c8ccccc8O)cc7c6c5)CC4)CC2)C3)C(C)(C)C)cc1 (single isomer, unassigned) [I-29] has what DC50?
Reply: > 100 nM

Query: Which DC50 value is on record for C#Cc1ccc(CNC(=O)[C@@H]2C[C@@H](O)CN2C(=O)[C@@H](NC(=O)[C@H]2CCC3(CC2)C[C@H](N2CCC(N(C)CCN4CCN5c6cc(-c7ccccc7O)nnc6NC[C@H]5C4)CC2)C3)C(C)(C)C)cc1 (single isomer, unassigned) [I-246] ?
Reply: > 100 nM

Query: Any idea what its DC50 is? The molecule is C#Cc1ccc(CNC(=O)[C@@H]2C[C@@H](O)CN2C(=O)[C@@H](NC(=O)N2CCN(C3CC4(CCN(c5cnc(N6CCN7c8cc(-c9ccccc9O)nnc8NC[C@H]7C6)nc5)CC4)C3)CC2)C(C)(C)C)cc1 [I-284]
Reply: 10 to 50 nM

Query: What DC50 value was documented for this molecule, C#Cc1ccc([C@H](CCO)NC(=O)[C@@H]2C[C@@H](O)CN2C(=O)[C@@H](NC(=O)N2CC3(CC(N4CCC(c5cnc(N6CCc7[nH]c8nnc(-c9ccccc9O)cc8c7[C@H]6C)nc5)CC4)C3)C2)C(C)(C)C)cc1 [I-169] ?
Reply: 10 to 50 nM

Query: Look up DC50 for this molecule: C#Cc1ccc(CNC(=O)[C@@H]2C[C@@H](O)CN2C(=O)[C@@H](NC(=O)N2CCN(C[C@H]3CC[C@H](N4CCC(N5CCc6[nH]c7nnc(-c8ccccc8O)cc7c6[C@H]5C)CC4)CC3)CC2)C(C)(C)C)cc1 [I-194]
Reply: > 100 nM

Query: Using the record for Cc1ncsc1-c1ccc(CNC(=O)[C@@H]2C[C@@H](O)CN2C(=O)C(c2cc(OC[C@H]3CC[C@@H](N4CCC(c5cnc(N6CCc7[nH]c8nnc(-c9ccccc9O)cc8c7[C@H]6C)nc5)CC4)CC3)no2)C(C)C)cc1 (single isomer, unassigned) [I-2] , report its DC50.
Reply: 10 to 50 nM

Query: Would you kindly share the measured DC50 for C#Cc1ccc(CNC(=O)[C@@H]2C[C@@H](O)CN2C(=O)[C@@H](NC(=O)[C@H]2CC3(CC[C@H](N4CCN(c5cnc(N6CCc7[nH]c8nnc(-c9ccccc9O)cc8c7[C@H]6C)nc5)CC4)CC3)C2)C(C)(C)C)cc1 (single isomer, unassigned) [I-300] ?
Reply: > 100 nM

Query: Item under review: C#Cc1ccc(CNC(=O)[C@@H]2C[C@@H](O)CN2C(=O)[C@@H](NC(=O)[C@H]2CC[C@H](CN3CCC(c4cnc(N5CCN6c7cc(-c8ccccc8O)nnc7NC[C@H]6C5)nc4)CC3)CC2)C(C)(C)C)cc1 [I-294] . Reported DC50?
Reply: < 10 nM

Query: // query DC50 value for entry C#Cc1cnc(CNC(=O)[C@@H]2C[C@@H](O)CN2C(=O)[C@@H](NC(=O)[C@H]2CCC3(CC2)C[C@H](N2CCC(c4cnc(N5CCN6c7cc(-c8ccccc8O)nnc7NC[C@H]6C5)nc4)CC2)C3)C(C)(C)C)c(OC)c1 (single isomer, unassigned) [I-286]
Reply: > 100 nM

Query: State the recorded DC50 for this entry: Cc1ncsc1-c1ccc(CNC(=O)[C@@H]2C[C@@H](O)CN2C(=O)[C@@H](NC(=O)[C@H]2CCC3(CC2)C[C@H](N2CCC(c4ccc(N5CCN6c7cc(-c8ccccc8O)nnc7NC[C@H]6C5)nc4)CC2)C3)C(C)(C)C)cc1 (stereo partly shown) [I-148]
Reply: 50 to 100 nM

All figures here come from patent US20250170248A1.
